Test: Lethal dose 50 % (DL50) per os in the rat
Type: in vivo
Conditions: in vivo, po; dose léthale 50 %, per os, rat
OUTCOME_MEASURE: LD50
Answer shape: numeric part, then the unit.

For the molecule shown here, COc1ccc2c(c1)c(CC(=O)O)c(C)n2C(=O)c1ccc(Cl)cc1 [Indométacine, reference compound] , give the reported LD50. 28 mg/kg
